- assayed_target: Sentrin-specific protease 6 (Homo sapiens, UniProt Q9GZR1);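 note: Luminescence-based dose-response confirmatory assay of SENP6 inhibition, following up an ultra-high-throughput screen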
- Sequence (Q9GZR1 whole entry): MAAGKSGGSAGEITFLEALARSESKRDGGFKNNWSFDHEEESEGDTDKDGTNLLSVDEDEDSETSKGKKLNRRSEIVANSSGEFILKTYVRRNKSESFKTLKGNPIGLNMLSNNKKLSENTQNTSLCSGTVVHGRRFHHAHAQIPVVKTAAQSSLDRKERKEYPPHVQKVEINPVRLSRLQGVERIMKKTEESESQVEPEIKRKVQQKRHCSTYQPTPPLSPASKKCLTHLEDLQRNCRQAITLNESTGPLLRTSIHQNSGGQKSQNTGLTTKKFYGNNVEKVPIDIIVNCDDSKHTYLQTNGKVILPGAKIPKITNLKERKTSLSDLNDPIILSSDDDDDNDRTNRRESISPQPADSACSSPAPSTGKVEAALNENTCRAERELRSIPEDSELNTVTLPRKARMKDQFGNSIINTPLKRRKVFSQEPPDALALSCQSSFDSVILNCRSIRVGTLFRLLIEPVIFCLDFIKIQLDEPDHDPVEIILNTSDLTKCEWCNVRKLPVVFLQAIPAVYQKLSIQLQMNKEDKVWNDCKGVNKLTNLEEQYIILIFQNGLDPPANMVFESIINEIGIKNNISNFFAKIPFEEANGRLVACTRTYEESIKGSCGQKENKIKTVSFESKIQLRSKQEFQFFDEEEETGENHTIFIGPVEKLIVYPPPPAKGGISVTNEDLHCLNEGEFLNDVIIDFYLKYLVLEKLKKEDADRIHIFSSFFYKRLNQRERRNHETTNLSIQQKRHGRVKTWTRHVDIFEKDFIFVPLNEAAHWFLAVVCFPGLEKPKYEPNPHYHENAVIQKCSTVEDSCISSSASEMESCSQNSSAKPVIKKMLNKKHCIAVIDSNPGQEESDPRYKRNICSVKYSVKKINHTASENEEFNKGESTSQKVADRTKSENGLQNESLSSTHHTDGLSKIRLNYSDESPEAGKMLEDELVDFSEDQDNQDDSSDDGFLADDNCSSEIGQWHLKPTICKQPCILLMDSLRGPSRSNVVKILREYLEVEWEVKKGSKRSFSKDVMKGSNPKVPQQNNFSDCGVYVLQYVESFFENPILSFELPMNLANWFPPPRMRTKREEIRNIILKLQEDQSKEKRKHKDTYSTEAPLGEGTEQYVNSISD
- Format: functional
The source made the active and inactive calls.
endpoint_name: IC50

{"molecule": "O=C(Oc1ccc2ccccc2c1Cl)N1CCCCCC1", "assayed_target": "Sentrin-specific protease 6 (Homo sapiens, UniProt Q9GZR1)", "IC50": "10.6 µM (active)"}
{"molecule": "CCCNC(=O)c1c(N)n(CC2CCCO2)c2nc3ccccc3nc12 (stereo not drawn)", "assayed_target": "Sentrin-specific protease 6 (Homo sapiens, UniProt Q9GZR1)", "IC50": "2.01 µM (active)"}

Please find the next molecule below.
[ask] Consider the molecule CC(C)(C)c1cc[n+](C2=C([N-]S(=O)(=O)c3cccs3)C(=O)c3ccccc3C2=O)cc1 and give its measured IC50.
[reply] 5.53 µM (active)
